# Measured target: E. coli Topoisomerase IV (Escherichia coli, UniProt P0AFI2+P20083)
# Sequence (P0AFI2 whole entry): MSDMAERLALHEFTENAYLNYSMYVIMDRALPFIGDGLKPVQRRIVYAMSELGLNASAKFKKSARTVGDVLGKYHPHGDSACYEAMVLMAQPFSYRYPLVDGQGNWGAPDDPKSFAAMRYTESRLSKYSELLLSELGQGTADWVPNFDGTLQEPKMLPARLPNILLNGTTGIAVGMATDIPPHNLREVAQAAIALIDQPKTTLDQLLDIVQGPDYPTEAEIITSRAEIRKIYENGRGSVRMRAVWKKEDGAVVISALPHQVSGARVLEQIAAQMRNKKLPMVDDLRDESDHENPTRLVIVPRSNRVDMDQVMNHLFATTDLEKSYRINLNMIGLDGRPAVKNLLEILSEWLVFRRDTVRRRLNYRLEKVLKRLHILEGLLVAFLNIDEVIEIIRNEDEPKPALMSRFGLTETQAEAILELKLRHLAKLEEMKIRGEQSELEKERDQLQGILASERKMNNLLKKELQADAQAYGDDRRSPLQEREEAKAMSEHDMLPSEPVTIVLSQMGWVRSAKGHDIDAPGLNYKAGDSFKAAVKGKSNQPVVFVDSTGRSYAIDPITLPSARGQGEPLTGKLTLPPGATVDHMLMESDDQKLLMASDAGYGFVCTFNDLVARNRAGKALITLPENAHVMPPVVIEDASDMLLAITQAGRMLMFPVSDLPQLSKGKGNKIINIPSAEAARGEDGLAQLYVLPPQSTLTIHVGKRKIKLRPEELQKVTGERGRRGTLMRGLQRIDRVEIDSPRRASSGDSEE
# Sequence (P20083 whole entry): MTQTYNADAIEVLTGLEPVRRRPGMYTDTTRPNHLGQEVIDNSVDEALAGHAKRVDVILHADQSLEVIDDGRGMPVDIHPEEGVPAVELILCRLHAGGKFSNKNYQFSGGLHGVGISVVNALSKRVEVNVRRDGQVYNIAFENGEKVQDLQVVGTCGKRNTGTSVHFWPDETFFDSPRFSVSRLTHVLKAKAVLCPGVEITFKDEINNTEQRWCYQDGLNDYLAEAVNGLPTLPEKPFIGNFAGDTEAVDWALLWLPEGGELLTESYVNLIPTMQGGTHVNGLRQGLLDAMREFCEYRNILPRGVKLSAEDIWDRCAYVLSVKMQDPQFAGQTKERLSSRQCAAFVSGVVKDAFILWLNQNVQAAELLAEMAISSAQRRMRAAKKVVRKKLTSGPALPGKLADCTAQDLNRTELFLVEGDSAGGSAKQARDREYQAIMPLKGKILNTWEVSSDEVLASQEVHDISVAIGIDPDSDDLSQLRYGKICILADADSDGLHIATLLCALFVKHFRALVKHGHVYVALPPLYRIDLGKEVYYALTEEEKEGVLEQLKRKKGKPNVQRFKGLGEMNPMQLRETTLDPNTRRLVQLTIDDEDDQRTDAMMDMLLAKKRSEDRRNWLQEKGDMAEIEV
# Experiment: biochemical
# Conditions used: read-out: % inhibition Topo IV
Each record here notes measured inhibition at 50 µM.
Give the value in % but do not write % after it.

Below are worked cases with known answers.
{"Molecular string": "COc1cnc2ncc(=O)n([C@H]3CC[C@H](NCc4cc5c(=O)oc6ccc(F)cc6c5[nH]4)CC3)c2c1", "Measured target": "E. coli Topoisomerase IV (Escherichia coli, UniProt P0AFI2+P20083)", "inhibition at 50 µM / %": 100}
{"Molecular string": "O=C1COc2ncc(F)cc2N1[C@H]1CC[C@H](NCc2cc3c(=O)oc4ccc(F)cc4c3[nH]2)CC1", "Measured target": "E. coli Topoisomerase IV (Escherichia coli, UniProt P0AFI2+P20083)", "inhibition at 50 µM / %": 50}
{"Molecular string": "COc1cnc2ccc(=O)n(C3CCN(CCc4cc5c(=O)oc6ccc(F)cc6c5[nH]4)CC3)c2n1", "Measured target": "E. coli Topoisomerase IV (Escherichia coli, UniProt P0AFI2+P20083)", "inhibition at 50 µM / %": 100}

Lab note: next molecule to report on.
Incoming: Record request: inhibition at 50 µM value, item Fc1ccc2ccnc(N3CCC(NCc4c[nH]c(-c5ccccn5)n4)CC3)c2c1
Outgoing: 60

====

# Measured target: S. aureus DNA gyrase (Staphylococcus aureus, UniProt P0A0K8+P20831)
# Sequence (P0A0K8 whole entry): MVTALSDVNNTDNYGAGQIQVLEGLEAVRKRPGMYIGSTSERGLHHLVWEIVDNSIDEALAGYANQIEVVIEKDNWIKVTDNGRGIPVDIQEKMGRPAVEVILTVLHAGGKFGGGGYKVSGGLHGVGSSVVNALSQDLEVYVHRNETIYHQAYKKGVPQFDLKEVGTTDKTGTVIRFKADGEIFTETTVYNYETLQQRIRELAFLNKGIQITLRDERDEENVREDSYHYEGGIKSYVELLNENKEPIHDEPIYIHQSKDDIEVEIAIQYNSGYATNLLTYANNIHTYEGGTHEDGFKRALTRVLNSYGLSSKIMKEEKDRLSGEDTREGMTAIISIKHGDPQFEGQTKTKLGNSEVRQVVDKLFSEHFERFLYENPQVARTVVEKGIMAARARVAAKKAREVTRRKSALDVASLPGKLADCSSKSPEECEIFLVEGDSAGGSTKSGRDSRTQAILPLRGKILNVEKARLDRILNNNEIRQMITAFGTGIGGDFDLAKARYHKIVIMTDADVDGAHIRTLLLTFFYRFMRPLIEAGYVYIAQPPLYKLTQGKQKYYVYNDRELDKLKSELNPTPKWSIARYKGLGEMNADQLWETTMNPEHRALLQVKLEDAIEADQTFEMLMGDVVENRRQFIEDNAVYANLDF
# Sequence (P20831 whole entry): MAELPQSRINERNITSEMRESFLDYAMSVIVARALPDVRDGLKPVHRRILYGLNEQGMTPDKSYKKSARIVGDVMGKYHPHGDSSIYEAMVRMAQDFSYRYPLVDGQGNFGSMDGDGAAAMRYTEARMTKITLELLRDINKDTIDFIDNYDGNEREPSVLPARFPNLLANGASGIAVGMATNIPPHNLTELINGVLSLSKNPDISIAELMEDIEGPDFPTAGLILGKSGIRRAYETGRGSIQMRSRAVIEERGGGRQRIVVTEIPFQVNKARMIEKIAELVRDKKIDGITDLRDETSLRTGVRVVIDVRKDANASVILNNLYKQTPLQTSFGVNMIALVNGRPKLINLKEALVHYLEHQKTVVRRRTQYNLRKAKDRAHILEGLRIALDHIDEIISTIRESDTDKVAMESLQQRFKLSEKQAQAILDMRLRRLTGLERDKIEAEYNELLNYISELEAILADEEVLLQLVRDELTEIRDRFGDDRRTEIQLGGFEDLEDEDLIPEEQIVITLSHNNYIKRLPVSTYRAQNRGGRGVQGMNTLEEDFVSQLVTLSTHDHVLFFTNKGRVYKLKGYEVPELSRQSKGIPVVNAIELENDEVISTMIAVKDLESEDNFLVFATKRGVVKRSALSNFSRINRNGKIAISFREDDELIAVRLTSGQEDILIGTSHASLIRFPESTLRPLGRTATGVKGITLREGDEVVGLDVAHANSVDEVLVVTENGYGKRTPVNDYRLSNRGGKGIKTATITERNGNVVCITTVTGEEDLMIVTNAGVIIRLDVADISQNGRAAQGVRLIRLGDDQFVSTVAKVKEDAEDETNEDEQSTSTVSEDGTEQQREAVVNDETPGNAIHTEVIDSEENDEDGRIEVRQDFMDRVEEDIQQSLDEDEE
# Experiment: biochemical
# Conditions used: IC50 DNA gyrase
Endpoint name: pIC50
Please treat pIC50 as minus the base-10 logarithm of the molar concentration.

Below are worked cases with known answers.
{"Compound": "O=C1COc2ncc(F)cc2N1[C@H]1CC[C@H](N(CCO)Cc2cc3c(=O)oc4ccc(F)cc4c3[nH]2)CC1 [Compound 221]", "Measured target": "S. aureus DNA gyrase (Staphylococcus aureus, UniProt P0A0K8+P20831)", "pIC50": 5.56}
{"Compound": "O=c1nc(NCC(O)CN2CCN(c3nccc4cc[n+]([O-])cc34)CC2)c2cc(F)ccc2o1 (stereo not shown) [Compound 164]", "Measured target": "S. aureus DNA gyrase (Staphylococcus aureus, UniProt P0A0K8+P20831)", "pIC50": 5.84}
{"Compound": "O=c1oc2ccc(F)cc2c2[nH]c(CN[C@H]3CC[C@H](n4c(=O)ccc5ccc(F)cc54)CC3)cc12 [Compound 216]", "Measured target": "S. aureus DNA gyrase (Staphylococcus aureus, UniProt P0A0K8+P20831)", "pIC50": 6.51}
{"Compound": "O=C1COc2ncc(F)cc2N1C1CCN(CC(O)CNc2cc(=O)oc3ccc(F)cc23)CC1 (stereo not shown) [Compound 303]", "Measured target": "S. aureus DNA gyrase (Staphylococcus aureus, UniProt P0A0K8+P20831)", "pIC50": 5.00}
{"Compound": "Fc1ccc2ccnc(N3CCC(NCc4c[nH]c(-c5ccccn5)n4)CC3)c2c1 [Compound 160]", "Measured target": "S. aureus DNA gyrase (Staphylococcus aureus, UniProt P0A0K8+P20831)", "pIC50": 4.68}

Incoming: Recorded pIC50 for COc1cnc2ncc(=O)n([C@H]3CC[C@@H](NCc4cc5c(=O)oc6ccc(F)cc6c5[nH]4)CC3)c2c1 [Compound 213] with S. aureus DNA gyrase (Staphylococcus aureus, UniProt P0A0K8+P20831), please?
Outgoing: 6.55

Incoming: Recorded pIC50 for N#Cc1ccc2ccc(=O)n([C@H]3CC[C@H](NCc4cc5c(=O)oc6ccc(F)cc6c5[nH]4)CC3)c2c1 [Compound 206] with S. aureus DNA gyrase (Staphylococcus aureus, UniProt P0A0K8+P20831), please?
Outgoing: 6.89

====

# Measured target: E. coli Topoisomerase IV (Escherichia coli, UniProt P0AFI2+P20083)
# Experiment: biochemical
# Conditions used: IC50 Topo IV
Endpoint name: pIC50
Please treat pIC50 as minus the base-10 logarithm of the molar concentration.

Below are worked cases with known answers.
{"Compound": "COc1cnc2ccc(=O)n([C@H]3CC[C@@H](NCc4cc5c(=O)oc6ccc(F)cc6c5[nH]4)CC3)c2c1 [Compound 205]", "Endpoint name": "pIC50", "Value reported": 6.51}
{"Compound": "O=C1COc2ncc(F)cc2N1[C@H]1CC[C@](CO)(NCc2cc3c(=O)oc4ccc(F)cc4c3[nH]2)CC1 [Compound 220]", "Endpoint name": "pIC50", "Value reported": 6.13}
{"Compound": "O=c1cc(NCC(O)C2CCN(C[C@@H]3Cn4c(=O)ccc5ncc(=O)n3c54)CC2)c2cc(F)ccc2o1 (mixture of isomers) [Compound 343]", "Endpoint name": "pIC50", "Value reported": 5.90}
{"Compound": "O=c1oc2ccc(F)cc2c2[nH]c(CN[C@H]3CC[C@H](n4c(=O)ccc5ccc(F)cc54)CC3)cc12 [Compound 216]", "Endpoint name": "pIC50", "Value reported": 6.60}
{"Compound": "O=c1oc2ccccc2c2[nH]c(CNCC3CN(c4nccc5ccc(F)cc45)CCO3)cc12 (single isomer, unassigned) [Compound 182]", "Endpoint name": "pIC50", "Value reported": 5.49}

Incoming: Record request: pIC50 value, item COc1cnc2ncc(=O)n([C@H]3CC[C@@H](NCc4cc5c(=O)oc6ccc(F)cc6c5[nH]4)CC3)c2c1 [Compound 213]
Outgoing: 6.00

====

# Measured target: S. aureus DNA gyrase (Staphylococcus aureus, UniProt P0A0K8+P20831)
# Experiment: biochemical
# Conditions used: IC50 DNA gyrase
Endpoint name: IC50 (nM)
Give the value in nM but do not write nM after it.

Incoming: Record request: IC50 value, item O=c1oc2ccccc2c2[nH]c(CNCC3CCN(c4nccc5ccc(F)cc45)C3)cc12 (single isomer, unassigned) [Compound 180]
Outgoing: 1700

Incoming: Record request: IC50 value, item O=C1COc2ncc(F)cc2N1[C@H]1CC[C@H](NCc2cc3c(=O)oc4ccc(F)cc4c3[nH]2)CC1
Outgoing: 280

Incoming: Record request: IC50 value, item O=C1COc2ncc(F)cc2N1[C@H]1CC[C@H](NCCNc2cc(=O)oc3ccc(F)cc23)CC1
Outgoing: 350

Incoming: Record request: IC50 value, item NC(=O)[C@]1(NCc2cc3c(=O)oc4ccc(F)cc4c3[nH]2)CC[C@H](N2C(=O)COc3ncc(F)cc32)CC1
Outgoing: 2150

Incoming: Record request: IC50 value, item O=c1oc2ccc(F)cc2c2[nH]c(CN[C@H]3CC[C@H](n4c(=O)cnc5ncc(F)cc54)CC3)cc12
Outgoing: 300

Incoming: Record request: IC50 value, item O=C1COc2ncc(F)cc2N1[C@H]1CC[C@](CO)(NCc2cc3c(=O)oc4ccc(F)cc4c3[nH]2)CC1
Outgoing: 1970

====

Each record here notes measured inhibition at 50 µM.
# Measured target: S. aureus Topoisomerase IV (Staphylococcus aureus, UniProt P0C1S7+P0C1U9)
# Experiment: biochemical
# Conditions used: S. aureus; compound conc. 50 μM; percent of inhibition versus positive control; n/a = not active; read-out: % inhibition Topo IV
Enter the number, and then the unit.

Below are worked cases with known answers.
{"Molecular string": "NC(=O)[C@]1(NCc2cc3c(=O)oc4ccc(F)cc4c3[nH]2)CC[C@H](N2C(=O)COc3ncc(F)cc32)CC1", "inhibition at 50 µM": "100%"}
{"Molecular string": "COc1cnc2ncc(=O)n([C@H]3CC[C@@H](NCc4cc5c(=O)oc6ccc(F)cc6c5[nH]4)CC3)c2c1", "inhibition at 50 µM": "84%"}

Lab note: next molecule to report on.
Incoming: Record request: inhibition at 50 µM value, item COc1cnc2ncc(=O)n([C@H]3CC[C@H](NCc4cc5c(=O)oc6ccc(F)cc6c5[nH]4)CC3)c2c1
Outgoing: 100%

====

# Measured target: S. aureus DNA gyrase (Staphylococcus aureus, UniProt P0A0K8+P20831)
# Experiment: biochemical
# Conditions used: IC50 DNA gyrase
param class (str): category from IC50; see ranges lo = under 600 nM, mid = from 600 nM up to 700 nM, hi = 700 nM and over

// known answers, use as guide
{"Compound": "COc1cnc2ncc(=O)n([C@H]3CC[C@H](NCc4cc5c(=O)oc6ccc(F)cc6c5[nH]4)CC3)c2c1", "Cat": "lo"}
{"Compound": "O=c1nc(NCC(O)CN2CCN(c3nccc4ccncc34)CC2)c2cc(F)ccc2o1 (centres unmarked)", "Cat": "hi"}

// switching to the query compound
Incoming: Consider O=c1oc2ccc(F)cc2c2[nH]c(CN[C@H]3CC[C@H](n4c(=O)cnc5ccc(F)cc54)CC3)cc12 . To which IC50 class does it belong?
Outgoing: lo

====

# Measured target: S. aureus DNA gyrase (Staphylococcus aureus, UniProt P0A0K8+P20831)
# Experiment: biochemical
# Conditions used: read-out: % inhibition DNA gyrase
Endpoint name: inhibition at 50 µM (%)
Give the value in % but do not write % after it.

{"Compound": "COc1ccc2ncc(=O)n([C@H]3CC[C@H](NCc4cc5c(=O)oc6ccc(F)cc6c5[nH]4)CC3)c2n1 [Compound 201]", "Value units": "%", "inhibition at 50 µM": 100}
{"Compound": "O=c1nc(NCC(O)CN2CCN(c3nccc4ccncc34)CC2)c2cc(F)ccc2o1 (centres unmarked) [Compound 157]", "Value units": "%", "inhibition at 50 µM": 89}
{"Compound": "O=c1oc2ccccc2c2[nH]c(CNCC3CCN(c4nccc5ccc(F)cc45)C3)cc12 (single isomer, unassigned) [Compound 180]", "Value units": "%", "inhibition at 50 µM": 90}

Incoming: Record request: inhibition at 50 µM value, item Fc1ccc2ccnc(N3CCC(NCc4c[nH]c(-c5ccccn5)n4)CC3)c2c1 [Compound 160]
Outgoing: 65

Incoming: Record request: inhibition at 50 µM value, item O=c1oc2ccc(F)cc2c2[nH]c(CN[C@H]3CC[C@H](n4c(=O)ccc5ncc(F)cc54)CC3)cc12 [Compound 207]
Outgoing: 100

Incoming: Record request: inhibition at 50 µM value, item COc1cnc2ccc(=O)n([C@H]3CC[C@@H](NCc4cc5c(=O)oc6ccc(F)cc6c5[nH]4)CC3)c2c1 [Compound 205]
Outgoing: 100

Incoming: Record request: inhibition at 50 µM value, item O=C1COc2ncc(F)cc2N1[C@H]1CC[C@H](N(CCO)Cc2cc3c(=O)oc4ccc(F)cc4c3[nH]2)CC1 [Compound 221]
Outgoing: 100
